Listed next: entries and their corresponding pIC50.
# SUBJECT OF TEST: human Dopamine D2L receptor (Homo sapiens, UniProt P14416)
# Construct: expressed in transfected cells; host or cells: CHO cells
# Sequence (P14416 whole entry): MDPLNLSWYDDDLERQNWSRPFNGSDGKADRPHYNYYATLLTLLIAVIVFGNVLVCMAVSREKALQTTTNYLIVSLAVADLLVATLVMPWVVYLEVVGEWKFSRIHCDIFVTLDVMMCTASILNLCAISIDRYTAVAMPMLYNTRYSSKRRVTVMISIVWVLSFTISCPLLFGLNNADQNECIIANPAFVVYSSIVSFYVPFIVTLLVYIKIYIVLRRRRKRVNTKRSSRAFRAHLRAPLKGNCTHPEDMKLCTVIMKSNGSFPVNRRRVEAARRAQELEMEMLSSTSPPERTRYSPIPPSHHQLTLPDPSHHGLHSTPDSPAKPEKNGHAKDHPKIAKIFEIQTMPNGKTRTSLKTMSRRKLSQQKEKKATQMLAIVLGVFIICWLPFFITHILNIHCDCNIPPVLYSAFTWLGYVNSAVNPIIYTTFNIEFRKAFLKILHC
# METHOD SUMMARY: In vitro binding affinity for human D2L receptor ([3H]Spiperone)
# COND: h-D2L, human D2L receptor-transfected CHO cell membranes, [3H]Spiperone
Convention used: pIC50 is expressed as -log10 of the molar concentration.

O=C(Oc1ccccc1)N1CCN(CC2CC3=C(O2)c2cc(F)ccc2Oc2ccccc23)CC1 (stereo not shown) :: 6.10
COc1ccc(OC(=O)N2CCN(CC3CC4=C(O3)c3cc(F)ccc3Oc3ccccc34)CC2)cc1 (stereo not shown) :: 6.10
COc1ccc(OC(=O)N2CCN(CC3CC4=C(O3)c3cc(F)ccc3Cc3ccccc34)CC2)cc1 (stereo not shown) :: 6.40

Now look at this one.
Give the measured pIC50 of O=C(Oc1ccccc1)N1CCN(CC2CC3=C(O2)c2cc(F)ccc2Cc2ccccc23)CC1 (stereo not shown) . 6.00

====

# SUBJECT OF TEST: human cloned 5-HT2A receptor (Homo sapiens, UniProt P28223)
# Construct: expressed in transfected cells; host or cells: L929 cells
# Sequence (P28223 whole entry): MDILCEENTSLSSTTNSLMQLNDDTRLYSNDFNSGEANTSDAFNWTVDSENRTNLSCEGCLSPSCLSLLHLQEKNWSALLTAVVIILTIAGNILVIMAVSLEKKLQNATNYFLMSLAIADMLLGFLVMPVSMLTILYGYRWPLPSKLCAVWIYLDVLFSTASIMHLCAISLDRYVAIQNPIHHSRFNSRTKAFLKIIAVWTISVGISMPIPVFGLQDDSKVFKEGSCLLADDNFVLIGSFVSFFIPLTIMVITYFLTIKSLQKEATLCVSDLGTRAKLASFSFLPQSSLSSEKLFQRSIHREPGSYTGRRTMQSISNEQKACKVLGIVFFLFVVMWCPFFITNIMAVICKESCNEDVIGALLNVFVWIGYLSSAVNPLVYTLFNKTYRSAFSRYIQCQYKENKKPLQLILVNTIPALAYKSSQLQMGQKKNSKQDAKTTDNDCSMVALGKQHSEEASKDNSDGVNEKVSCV
# METHOD SUMMARY: In vitro binding affinity for 5-HT2A receptor (radioligand binding)
# COND: human cloned 5-HT2A receptor, radioligand binding; read-out: h-5HT2A (converted)
Label key: yes means IC50 under 10 nM; no means IC50 of 10 nM or more.

Please review the entries below; each comes with its answer.
CCCCNC(=O)N1CCN(CC2CC3=C(O2)c2cc(F)ccc2Cc2ccccc23)CC1 (centres unmarked) :: yes
CNCC1CC2=C(O1)c1cc(Br)ccc1Cc1ccccc12 (centres unmarked) :: yes
CC(C)OC(=O)N1CCN(CC2CC3=C(O2)c2cc(F)ccc2Cc2ccccc23)CC1 (centres unmarked) :: no
CCCCNC(=O)N1CCN(CC2CC3=C(O2)c2cc(F)ccc2Oc2ccccc23)CC1 (centres unmarked) :: no
O=C(OCc1ccccc1)N1CCN(CC2CC3=C(O2)c2cc(F)ccc2Oc2ccccc23)CC1 (centres unmarked) :: no
O=C(NCc1ccccc1)N1CCN(CC2CC3=C(O2)c2cc(F)ccc2Oc2ccccc23)CC1 (centres unmarked) :: no

Continue with the next molecule.
Threshold test, IC50 < 10 nM: `CN(CC(=O)c1ccccc1)C[C@H]1CC2=C(O1)c1cc(F)ccc1Cc1ccccc12` yes

====

# SUBJECT OF TEST: human cloned 5-HT2A receptor (Homo sapiens)
# Construct: expressed in transfected cells; host or cells: L929 cells
# METHOD SUMMARY: In vitro binding affinity for 5-HT2A receptor (radioligand binding)
# COND: human cloned 5-HT2A receptor, radioligand binding; read-out: h-5HT2A (converted)
Rule: IC50 below 4 nM gives TRUE, anything at or above gives FALSE.

Just wondering, is IC50 of CNCC1CC2=C(O1)c1ccccc1Cc1cccc(F)c12 (centres unmarked) below 4 nM? FALSE

Strictly below 4 nM: is that where IC50 of CN(C)CC1CC2=C(O1)c1cc(F)ccc1Sc1ccccc12 (centres unmarked) sits? TRUE

Answer whether the molecule `CCOC(=O)CN(C)C[C@H]1CC2=C(O1)c1cc(F)ccc1Cc1ccccc12` has IC50 strictly less than 4 nM FALSE

====

# SUBJECT OF TEST: NET (Rattus norvegicus)
# Construct: Cortex from rat brain was collected and homogenised; from tissue; host or cells: rat brain cortex
# METHOD SUMMARY: In vitro determination of NET reuptake inhibition ([3H]Nixosetine binding, rat brain cortex)
# COND: rat brain cortex, [3H]Nixosetine; read-out: NET Reuptake Inhibition (converted)
Parameter: IC50. Scope: all listed entries.
Please state the figure in µM; there is no need to write the unit.

COC(=O)CC(=O)N(C)C[C@H]1CC2=C(O1)c1cc(F)ccc1Cc1ccccc12 :: 7.94

What IC50 value was documented for this compound, CCCn1c2c(c3ccccc31)C1=C(CC(CN(C)C)O1)c1ccccc1S2 (stereo not drawn) ? 1.26

Sample O=C(c1ccccc1)N1CCN(CC2CC3=C(O2)c2cc(F)ccc2Oc2ccccc23)CC1 (stereo not drawn) — what was its IC50? 6.31

Param item = CNCC1CC2=C(O1)c1cc(F)ccc1Cc1ccccc12 (stereo not drawn) ; retrieve measured IC50. 0.0158

What value of measured IC50 is listed for Fc1ccc2c(c1)C1=C(CC(CN3CCOCC3)O1)c1ccccc1C2 (stereo not drawn) ? 1.58

What does the data say about its IC50? Entry: C=C1c2ccccc2C2=C(OC(CNC)C2)c2ccccc21 (stereo not drawn) 0.0251

Returns the measured IC50 for the input compound. Input: `CN(C/C=C/C(=O)O)C[C@H]1CC2=C(O1)c1cc(F)ccc1Cc1ccccc12` 0.398

====

Listed compounds paired with reported IC50
# SUBJECT OF TEST: NET (Rattus norvegicus, UniProt Q9WTR4)
# Construct: Cortex from rat brain was collected and homogenised; from tissue; host or cells: rat brain cortex
# Sequence (Q9WTR4 1-597): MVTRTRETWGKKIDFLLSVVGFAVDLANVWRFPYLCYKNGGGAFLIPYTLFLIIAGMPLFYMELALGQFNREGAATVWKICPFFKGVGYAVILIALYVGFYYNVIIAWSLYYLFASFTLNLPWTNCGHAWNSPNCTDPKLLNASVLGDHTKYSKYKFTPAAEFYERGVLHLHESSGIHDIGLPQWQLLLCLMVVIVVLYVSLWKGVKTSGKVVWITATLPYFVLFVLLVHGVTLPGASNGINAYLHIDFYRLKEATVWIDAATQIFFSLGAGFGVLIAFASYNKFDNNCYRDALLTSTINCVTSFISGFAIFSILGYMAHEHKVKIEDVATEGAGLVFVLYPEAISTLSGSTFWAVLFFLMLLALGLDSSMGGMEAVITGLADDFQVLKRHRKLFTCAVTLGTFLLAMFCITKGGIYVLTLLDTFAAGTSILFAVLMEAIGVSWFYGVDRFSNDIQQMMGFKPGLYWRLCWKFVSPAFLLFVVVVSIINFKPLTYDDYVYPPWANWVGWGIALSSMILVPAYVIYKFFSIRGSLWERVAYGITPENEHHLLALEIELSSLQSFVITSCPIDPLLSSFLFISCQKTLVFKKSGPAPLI
# METHOD SUMMARY: In vitro determination of NET reuptake inhibition ([3H]Nixosetine binding, rat brain cortex)
# COND: rat brain cortex, [3H]Nixosetine; read-out: NET Reuptake Inhibition (converted)

O=C(OCc1ccccc1)N1CCN(CC2CC3=C(O2)c2cc(F)ccc2Oc2ccccc23)CC1 (stereo not drawn) [Compound 70] :: > 10 µM
CCS(=O)(=O)N1CCN(CC2CC3=C(O2)c2cc(F)ccc2Cc2ccccc23)CC1 (stereo not drawn) [Compound 46] :: > 10 µM

// next entry
Bench note: what IC50 did Fc1ccc2c(c1)C1=C(CC(CN3CCC4(CC3)OCCO4)O1)c1ccccc1C2 (stereo not drawn) [Compound 39] show? > 10 µM

====

# SUBJECT OF TEST: human Dopamine D2L receptor (Homo sapiens, UniProt P14416)
# Construct: expressed in transfected cells; host or cells: CHO cells
# METHOD SUMMARY: In vitro binding affinity for human D2L receptor ([3H]Spiperone)
# COND: human D2L receptor-transfected CHO cell membranes, [3H]Spiperone; read-out: h-D2L (converted)
# Protocol: Frozen membranes of human Dopamine D2L receptor-transfected CHO cells were thawed, briefly homogenised using an Ultra-Turrax T25 homogeniser and diluted in Tris-HCl assay buffer containing NaCl, CaCl2, MgCl2, KCl (50, 120, 2, 1, and 5 mM respectively, adjusted to pH 7.7 with HCl) to an appropriate protein concentration optimised for specific and non-specific binding. […] Percentage specific bound and competition binding curves were calculated using S-Plus software (Insightful).
Lab note: anything with IC50 below 800 nM is marked 1; values at 800 nM or higher are marked 0.

O=C(NC1CCCCC1)N1CCN(CC2CC3=C(O2)c2cc(F)ccc2Oc2ccccc23)CC1 (stereo not shown) :: 0
CNCC1CC2=C(O1)c1ccccc1C(C)c1ccccc12 (stereo not shown) [Compound 7] :: 0
Fc1ccc2c(c1)C1=C(CC(CN3CCOCC3)O1)c1ccccc1C2 (stereo not shown) :: 1
CN(C)CC1CC2=C(O1)c1ccccc1Oc1ccccc12 (stereo not shown) :: 0

Is 800 nM strictly greater than the molecule's reported IC50? molecule: CNCC1CC2=C(O1)c1ccccc1C(C)c1ccccc12 (stereo not shown) [Compound 10] 0

In the record for `COc1ccccc1NC[C@@H]1CC2=C(O1)c1cc(F)ccc1Cc1ccccc12` , is IC50 less than 800 nM? 0

Problem: For the molecule OC1CCN(CC2CC3=C(O2)c2cc(F)ccc2Cc2ccccc23)C1 (stereo not shown) , is IC50 under 800 nM? 1

Say whether its IC50 is strictly beneath 800 nM. Entry: COC(=O)CC(=O)N1CCN(CC2CC3=C(O2)c2cc(F)ccc2Cc2ccccc23)CC1 (stereo not shown) 1

====

# SUBJECT OF TEST: human cloned 5-HT2A receptor (Homo sapiens, UniProt P28223)
# Construct: expressed in transfected cells; host or cells: L929 cells
# METHOD SUMMARY: In vitro binding affinity for 5-HT2A receptor (radioligand binding)
# COND: human cloned 5-HT2A receptor, radioligand binding; read-out: h-5HT2A (converted)
# Description: During the incubation, the radioligands bind to the receptor. When equilibrium of binding is reached, the receptor bound radioactivity is separated from the non-bound radioactivity, and the receptor bound activity is counted. The interaction of the test compounds with the receptors is assessed in competition binding experiments. Various concentrations of the test compound are added to the incubation mixture containing the tissue preparation and the radioligand. […]
EXPERIMENTAL READOUT: log10(IC50) (log10 of the value in nM)
Each number you see is log10 of IC50, and the unit inside the log is nM.

CNC[C@@H]1CC2=C(O1)c1cc(F)ccc1Cc1ccccc12 [Compound 4] :: -0.30
CN(CC(=O)N(C)C)C[C@H]1CC2=C(O1)c1cc(F)ccc1Cc1ccccc12 [Compound 117] :: 1.00

Could you share which log10(IC50) value was measured for CC(=O)N1CCN(CC2CC3=C(O2)c2cc(F)ccc2Cc2ccccc23)CC1 (centres unmarked) [Compound 53] ? 0.60

I have this compound here, CN(C)CC1CC2=C(O1)c1cc(F)ccc1Oc1ccccc12 (centres unmarked) [Compound 26] , and I need its recorded log10(IC50). 1.00

Find the recorded log10(IC50) belonging to OC1CCN(CC2CC3=C(O2)c2cc(F)ccc2Cc2ccccc23)C1 (centres unmarked) [Compound 33] and report it. -0.10

Quick check: log10(IC50) of CNCC1CC2=C(O1)c1cc(F)ccc1Cc1ccccc12 (centres unmarked) [Compound 2] ? -0.20

Endpoint output: log10(IC50) of O=C(NC1CCCCC1)N1CCN(CC2CC3=C(O2)c2cc(F)ccc2Oc2ccccc23)CC1 (centres unmarked) [Compound 80] . Value? 1.60

Please report the recorded log10(IC50) for CNCC1CC2=C(O1)c1ccccc1C(C)c1ccccc12 (centres unmarked) [Compound 7] . 1.70
